ASSAY_METHOD_TEXT: toxicity on mice p.o. (Table 2)
TEST_CONDITIONS: mouse, in vivo, po
VALUE_TYPE: LD50 (mg/kg)
The response must be a number in mg/kg with no trailing unit.

(Q) State the recorded LD50 for this entry: COc1cc2[nH]nc(C(=O)NNCc3ccccc3)c2cc1OC
(A) 2000

###

ASSAY_METHOD_TEXT: toxicity LD50 listed with the antidepressant activity (Table 4)
TEST_CONDITIONS: mouse, in vivo
This section presents compounds with their documented LD50 values.

(Q) State the recorded LD50 for this entry: COc1cc2[nH]nc(C(=O)NNC(C)c3ccc([N+](=O)[O-])cc3)c2cc1OC (centres unmarked) [Compound 35]
(A) > 5000 mg/kg

Now take the following compound into account.
(Q) State the recorded LD50 for this entry: COc1cc2[nH]nc(C(=O)NNCc3ccccc3O)c2cc1OC [Compound 32]
(A) > 3000 mg/kg
